These measurements were taken from ChEMBL document CHEMBL5303304.

# System: U2OS
# Run description: Incucyte cell viability with U2OS; also: unitless GR value; below 1 slowed growth and below 0 cell loss
# Type: toxicity, cell-based
# Condition description: human, 12 h, 10 µM, compound concentration 10 uM, replicate number 2
Property label: Growth Rate

Example results:
Compound	Growth Rate
COc1ccc(OC(=O)N(CC(=O)O)Cc2ccc(OCCc3nc(-c4ccccc4)oc3C)cc2)cc1	0.94
N[C@@H]1CCCC[C@H]1Oc1ccc2ncc(-c3cc4ccccc4o3)n2n1	-0.8
C[C@@H](NC(=O)Cc1ccc(C2CC2)cc1)c1ccc(OCC(F)(F)F)cn1	0.53
CCC(C)(C)CC[C@H](NC(=O)N1CCOCC1)C(=O)NC1(C#N)CCN(C)CC1	0.96

The following compounds each have a reported value; give each one's Growth Rate.
1. CCCCCNC(=O)N1CCC(CN(Cc2ccc(Cl)cc2)Cc2ccc([N+](=O)[O-])s2)C1 (stereo not given)
2. NC(=O)c1sc2nc(N3CCC(NC[C@H](O)c4ccccn4)CC3)cc(C(F)(F)F)c2c1N
3. Cc1c(C(=O)Nc2cccc(C(F)(F)F)c2)cc(-c2ccccc2)n1CCCN1CCOCC1.Cl
4. Cc1cc(S(=O)(=O)N2CC(C)(C)c3cc(-c4ccc(C(F)(F)F)cc4)ccc32)ccc1OCC(=O)O
5. O=C1NC(=Nc2c(Cl)cccc2Cl)S/C1=C\c1ccc2nccnc2c1
6. CC(C)[C@H](C(=O)Nc1ccc(C(=O)NO)cc1)c1ccccc1

[0.86, 0.54, 0.89, 0.54, 0.38, 0.96]

The following compounds each have a reported value; give each one's Growth Rate.
1. CC(C)N1CCN(Cc2cnc(-c3cc(-c4cccc5[nH]ccc45)cc4[nH]ncc34)o2)CC1
2. O=C(Nc1ccc(OC(F)(F)Cl)cc1)c1cnc(N2CC[C@@H](O)C2)c(-c2ccn[nH]2)c1
3. CN(C(=O)c1cnn2cccnc12)c1cc2c(cc1N1CCOCC1)C(=O)N(C[C@@H](F)C(C)(C)O)C2

[0.64, 0.61, -0.78]

The following compounds each have a reported value; give each one's Growth Rate.
1. Fc1ccc(Cl)cc1-c1nc(Nc2ccncc2)c2nccnc2n1
2. NC(=O)c1cc2c(-c3ccc(C(=O)NCc4ccnc(Cl)c4)s3)cccc2s1
3. Cn1cnc(Cn2ccc3ccc(CNCc4[nH]c5ccccc5c4[C@@H]4NC(=O)c5ccc(O)cc54)cc32)c1

1: 0.77; 2: -0.23; 3: 0.81

The following compounds each have a reported value; give each one's Growth Rate.
1. Cc1nn(C)c(COc2ccc(N3CCN(S(=O)(=O)N(C)C)CC3)cc2)c1-c1cccc2c(CCCOc3cccc4ccccc34)c(C(=O)O)n(CCN3CCOCC3)c12
2. CN(C)CCCNc1ccnc(Nc2cccc(Cl)c2)n1
3. CNC(=O)COc1cc2cc(Nc3nc(N4CCC(C(=O)N(C)C)CC4)ncc3Cl)cc(OC)c2n(C)c1=O
4. NCc1ccc(OCCCc2sc(-c3ccc4c(c3)/C(=N/Nc3nc5ccccc5s3)CCC4)nc2C(=O)O)cc1
5. CCCCC/C=C/C=C1/C(=O)C=C[C@@H]1C/C=C\CCCC(=O)O
6. CNc1nc(Nc2ccc(C(=O)N3CCOCC3)cc2OC)nc2[nH]cc(Cl)c12
7. Cc1ccc(-c2cn3nc(C(=O)NC4(c5ccc(F)cc5)CN(C)C4)c(C(C)C)c3c(=O)[nH]2)cc1C

0.97
0.65
0.77
0.7
0.62
0.5
0.86

###

# Tested on: HEK-293T
# Run description: Incucyte cell viability with HEK293T; also: unitless GR value; below 1 slowed growth and below 0 cell loss
# Format: toxicity, cell-based
# Condition description: human, 6 h, 10 µM, compound concentration 10 uM, replicate number 2
Mark MET only for Growth Rate values smaller than 0.8; exact matches and larger values are NOT MET.

Some solved cases for reference:
Smiles representation	Measured on	Qualitative label
CC/C(=C(\c1ccc(O)cc1)c1ccc(OCCN(C)C)cc1)c1ccccc1	HEK-293T	MET
N[C@@H](Cn1cc(F)c(=O)[nH]c1=O)C(=O)O	HEK-293T	NOT MET

Report whether reported Growth Rate is lower than 0.8 (strictly) for CCN1C(=O)N(c2c(F)c(OC)cc(OC)c2F)Cc2cnc3[nH]c(CN4CCOCC4)cc3c21
MET

###

# System: Fibroblast
# Run description: Incucyte cell viability with human fibroblast; also: unitless GR value; below 1 slowed growth and below 0 cell loss
# Type: toxicity, cell-based
# Condition description: 18 h, 10 µM, compound concentration 10 uM, replicate number 1
Mark Condition met only for Growth Rate values smaller than 0.5; exact matches and larger values are Condition not met.

Some solved cases for reference:
Compound	Qualitative label
CC/C(=C(\c1ccccc1)c1ccc(OCCN(C)C)cc1)c1ccccc1.O=C(O)CC(O)(CC(=O)O)C(=O)O [TAMOXIFEN CITRATE]	Condition met
CO[C@H]1CC[C@H](N(c2cc(F)c(Oc3ncc(Cn4nccn4)cc3C(F)(F)F)cc2C(=O)O)C(=O)[C@H]2CC[C@H](C)CC2)CC1	Condition not met
Cc1ccc(NS(=O)(=O)c2ccc3c(c2)C2C=CCC2C(c2ccc(C(=O)O)cc2)N3)cc1C (stereo unspecified)	Condition not met
Cn1c(C2(NC(=O)c3ccc4c(C5CCCC5)c(-c5ncc(Br)cn5)n(C)c4c3)CCC2)nc2ccc(/C=C/C(=O)O)cc21 [DELEOBUVIR]	Condition not met
Cn1cnc(Cn2ccc3ccc(CNCc4[nH]c5ccccc5c4[C@H]4NC(=O)c5ccc(O)cc54)cc32)c1	Condition not met
CN(C)C/C=C/C(=O)Nc1cccc(S(=O)(=O)N2CCC(NC(=O)c3n[nH]cc3NC(=O)c3c(Cl)cc(Cl)cc3Cl)CC2)c1	Condition met
Cc1cccc(CC(=O)N2CCc3c2ccc(-c2cn(C)c4ncnc(N)c24)c3F)n1	Condition met
COc1ccc(CSc2nnc(-c3ccc4ncsc4c3)o2)cc1C(F)(F)F	Condition not met

Report whether reported Growth Rate is lower than 0.5 (strictly) for COc1ccc(F)c(F)c1C(=O)c1cnc(NC2CCN(S(C)(=O)=O)CC2)nc1N [RG-547]
Condition not met

Report whether reported Growth Rate is lower than 0.5 (strictly) for COc1cc(/C=C(\C#N)C(=O)Nc2nnc(C(F)(F)F)s2)ccc1OCc1ccc(C(F)(F)F)cc1C(F)(F)F
Condition not met

Report whether reported Growth Rate is lower than 0.5 (strictly) for CN[C@@H](C)C(=O)N[C@H](C(=O)N1CCC[C@H]1C(=O)N[C@H]1c2ccccc2C[C@H]1OCC#CC#CCO[C@@H]1Cc2ccccc2[C@@H]1NC(=O)[C@@H]1CCCN1C(=O)[C@@H](NC(=O)[C@H](C)NC)C1CCCCC1)C1CCCCC1
Condition not met

Report whether reported Growth Rate is lower than 0.5 (strictly) for COCCNC1CCC(Nc2cc(-c3csc(NCC4(C#N)CCOCC4)n3)c(Cl)cn2)CC1 (stereo unspecified)
Condition met

Report whether reported Growth Rate is lower than 0.5 (strictly) for C/C(=C\C(=O)Nc1ccccc1C(=O)[O-])c1ccc2ccccc2c1.[Na+]
Condition not met

Report whether reported Growth Rate is lower than 0.5 (strictly) for COc1ccc(OC)c(-c2ccc(NC(=O)c3ccncc3F)cc2)c1
Condition met

Report whether reported Growth Rate is lower than 0.5 (strictly) for Cc1c(CN2CCC3(CC2)CN(c2ncnc4sc(CC(F)(F)F)cc24)C3)ccc2c1cc(C#N)n2CC(N)=O
Condition met

Report whether reported Growth Rate is lower than 0.5 (strictly) for O[C@]1(C(F)(F)F)CCCC[C@H]1Nc1ccc(F)cc1 [BAY-390]
Condition not met

###

# System: HEK-293T
# Run description: Incucyte cell viability with HEK293T; also: unitless GR value; below 1 slowed growth and below 0 cell loss
# Type: toxicity, cell-based
# Condition description: human, 24 h, 10 µM, compound concentration 10 uM, replicate number 2
Record form. Attribute: Growth Rate. Fill in for each entry.
Numbers only.

Example results:
Compound	Growth Rate
CC(C)Oc1ccc(F)c(-c2cnc(N)c(C(=O)Nc3cnccc3N3CCC[C@@H](C(=O)O)C3)n2)c1	0.05
COc1cc(N2CCN(C)CC2)ccc1Nc1ncc2c(n1)N(C)c1ccccc1C(=O)N2CC(F)(F)F	0.36
Cc1ncsc1-c1ccc(CNC(=O)[C@@H]2C[C@@H](O)CN2C(=O)[C@@H](NC(=O)CCCCNC(=O)c2ccc(-c3ccc(N4CCN(C)CC4)c(NC(=O)c4c[nH]c(=O)cc4C(F)(F)F)c3)cc2)C(C)(C)C)cc1	0.72
FC(F)(F)c1ccccc1-c1cc(C(F)(F)F)c2[nH]c(C3=NOC4(CCCCC4)C3)nc2c1	0
O=C1NC(Nc2ccccc2)=N/C1=C\c1ccc2c(c1)OCO2	0.33

The following compounds each have a reported value; give each one's Growth Rate.
1. Cc1nsc(Nc2cnc(C(F)(F)F)cn2)c1C(=O)Nc1ccc(O[C@H]2CCCN(CC(F)(F)F)C2)nc1
2. COc1ccccc1[C@@H]1CNCCC12CCN(C(=O)[C@](OC)(c1ccccc1)C(F)(F)F)CC2
3. CCN(CC)C/C=C/C(=O)Nc1cc2c(Nc3ccc(F)c(Cl)c3)ncnc2cc1OCC1CC1
4. CC[C@H](CC(=O)O)n1c(=O)c2ncccc2n(Cc2cn(C)c3cc(C)cc(C)c23)c1=O
5. CC(C)Oc1ccc(Cc2ccc(NC3=NCCN3)cc2)cc1
6. COc1c(C(=O)/C=C/c2ccccc2)c(O)c(OC)c2occc12

-0.32
0.34
-0.29
0.65
0.45
0.75

The following compounds each have a reported value; give each one's Growth Rate.
1. Cc1cccc([C@H]2CC[C@@H](N3CCN(c4cccnc4)CC3)CC2)c1.O=C(O)C(F)(F)F.O=C(O)C(F)(F)F
2. CC(C)C[C@H](NC(=O)[C@@H](O)[C@H](N)Cc1ccccc1)C(=O)O

[0.79, 0.92]
